These measurements were taken from patent US4501748A.

Experiment: LD50 in the oral administration in male rats
Details: rat, in vivo
Where a name gives a salt, the structure may show the parent alone.
Metric: LD50 (mg/kg)
Write down the numeric answer in mg/kg and omit the unit.

Task item: Endpoint output: LD50 of COC(=O)C1=C(C)NC(C)=C(C(=O)OC2CCCN(Cc3ccccc3)C2)C1c1cccc([N+](=O)[O-])c1 (single isomer, unassigned) [(+)-α-form, hydrochloride] . Value?
Reply: 95

---

Assay: Acute toxicity, oral administration to mice (survival rate 72 hours after administration)
Type: in vivo, mice (ddY type
Conditions: mouse, in vivo, mice ddY male
Metric: LD50 at 72 h (mg/kg)
Write down the numeric answer in mg/kg and omit the unit.

Task item: Endpoint output: LD50 at 72 h of COC(=O)C1=C(C)NC(C)=C(C(=O)OC2CCCN(Cc3ccccc3)C2)C1c1cccc([N+](=O)[O-])c1 (racemic) [(±)-α-form] . Value?
Reply: 218
